Task for the reader: assign each of the following sequences its reported PBM binding z-score.
# Tested on: FXR:RXRa (NR concentration 270 nM, RXRa partner concentration 90 nM)
# Run description: PBM binding z-score (relative to random genomic background probes); higher = stronger binding; sequences stand for … in GC…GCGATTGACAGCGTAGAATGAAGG

Give PBM binding z-score for the following sequence: CAAACTAGGTTAAGGTCAAAGTCGGTTTGTGCCA
5.87

Give PBM binding z-score for the following sequence: TAGCCTAGGTCATGGGCCAGCATACCACGCGAAC
4.04

Give PBM binding z-score for the following sequence: TCTCGCAGGCCAGAGGGTCACTCAAGAGGTACGG
1.04

Give PBM binding z-score for the following sequence: CCTACTGGGGCATCAGGTCATTGATATCAACGTT
1.51

Give PBM binding z-score for the following sequence: TTACCAAGGTGAAGGTCATTGATCCCTCTGTAGA
4.39

Give PBM binding z-score for the following sequence: CGAACTGGGTCATCCAGGACAGTGAATACATTGA
3.3

---

# System: RARa:RXR (NR concentration 270 nM, RXRa partner concentration 90 nM)
# Run description: PBM binding z-score (relative to random genomic background probes); higher = stronger binding; sequences stand for … in GC…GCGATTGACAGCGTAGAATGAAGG
Rule: true (1) for PBM binding z-score not less than 2, false (0) for anything less.

Could you verify whether the entry AGAATGAGGTTACCAAAGACCAGGGAAACGCTTG shows PBM binding z-score of no less than 2?
true (1)

Could you verify whether the entry TAGCCTAGGTCATGCGGGCCAGTAAAGTGTCGGC shows PBM binding z-score of no less than 2?
true (1)

Could you verify whether the entry CCAGACAGGTGAGAAGTTAACTCAGCCTCGATTA shows PBM binding z-score of no less than 2?
false (0)

Could you verify whether the entry CCAGACAGGTGAAAGGTATCTCAGTCTGGTACGC shows PBM binding z-score of no less than 2?
false (0)

Could you verify whether the entry GATACAGGGTCAAGGCTAGAGTACGCGTATTGAT shows PBM binding z-score of no less than 2?
true (1)

Could you verify whether the entry ATACCAAGGTGATCGTGAGGTCGTTGCTACTAAC shows PBM binding z-score of no less than 2?
false (0)

---

# Test system: PXR homodimer (NR concentration 270 nM)
# Run description: PBM binding z-score (relative to random genomic background probes); higher = stronger binding; sequences stand for … in GC…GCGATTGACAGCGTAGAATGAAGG
Rule: Satisfied for PBM binding z-score not less than -0.2, Not satisfied for anything less.

Could you verify whether the entry CCGACTGGGGCATATGGTTACCATAAGCCAGCCC shows PBM binding z-score of no less than -0.2?
Not satisfied

Could you verify whether the entry CTACCAAGGTGAACAAAGTCGTTGATTACTATTC shows PBM binding z-score of no less than -0.2?
Satisfied

Could you verify whether the entry TCTCGGAGGACACGAATGGTCAGAGCTCGACATC shows PBM binding z-score of no less than -0.2?
Not satisfied

Could you verify whether the entry CGAACGTGGGCATGAGTTGATAGCAAATGCCGAT shows PBM binding z-score of no less than -0.2?
Not satisfied

Could you verify whether the entry CTACCAAGGTGAACAAGGTCGTTCATTACTATTC shows PBM binding z-score of no less than -0.2?
Satisfied

src = the supplement of paper PMC6555819
